Values were extracted from paper PMC9637228.

# Experimental Details: Cytotoxicity (cell viability) in the SARS-CoV-2 Vero cell assay
# Condition Description: African green monkey, Vero cells, CC50, Round 1
Experimental Readout: CC50 at 24 h (µM)
Report only the number, with the unit µM understood.

Sample answers from the record:
{"columns": ["Smiles String", "Assay Value"],
 "data": [
  ["COC(=O)C[C@](O)(CCCC(C)(C)O)C(=O)O[C@@H]1C(OC)=C[C@]23CCCN2CCc2cc4c(cc2[C@H]13)OCO4", 2.14],
  ["CCOC(=O)C1=C(C)NC(C)=C(C(=O)OCC)C1c1ccccc1/C=C/C(=O)OC(C)(C)C", 20.2]
]}

# input for lookup
Entry Cc1nc(Nc2ncc(C(=O)Nc3c(C)cccc3Cl)s2)cc(N2CCN(CCO)CC2)n1 — recorded CC50 at 24 h = 13.2

----------
# Tested on: SARS-CoV-2
# Experimental Details: microbe, parasite or virus in culture
# Assay type: cell-based
# Condition Description: Severe acute respiratory syndrome coronavirus 2, Vero, Round 1; SARS-CoV-2 infected Vero cells, 24 h, 1-h preincubation
Experimental Readout: IC50 (µM)
// units = µM; emit number, no label

Consider the following illustrative entries.
{"columns": ["Molecule", "IC50 [µM]"],
 "data": [
  ["COC(=O)C[C@](O)(CCCC(C)(C)O)C(=O)O[C@@H]1C(OC)=C[C@]23CCCN2CCc2cc4c(cc2[C@H]13)OCO4", 0.16],
  ["CCC(CC)COC(=O)[C@H](C)N[P@](=O)(OC[C@H]1O[C@@](C#N)(c2ccc3c(N)ncnn23)[C@H](O)[C@@H]1O)Oc1ccccc1", 12.1]
]}

// moving on: another record for IC50
Reported IC50 for CCN(CC)CCCC(C)Nc1ccnc2cc(Cl)ccc12 (stereo not drawn) was 12

----------
# Experimental Details: in vitro
# Condition Description: African green monkey, CC50, Round 1; Vero cells
Experimental Readout: CC50 (µM)
Hi! Could you send only the number? It should be in µM, unit omitted.

Entry CCN(CC)CCCC(C)Nc1ccnc2cc(Cl)ccc12 (stereo not shown) [Chloroquine] — recorded CC50 = 128

----------
# Experimental Details: Cytotoxicity (cell viability) in the SARS-CoV-2 Vero cell assay
# Condition Description: African green monkey, Vero cells, CC50, Round 2
Experimental Readout: CC50 at 24 h

{"columns": ["Smiles String", "CC50 at 24 h"],
 "data": [
  ["CC(C)C[C@H](NC(=O)[C@H](Cc1ccccc1)NC(=O)c1cnccn1)B(O)O", "> 50 µM"],
  ["CC(C)C[C@H](NC(=O)CNC(=O)c1cc(Cl)ccc1Cl)B(O)O", "> 50 µM"],
  ["Cc1cccc(C)c1OCC(=O)N[C@@H](Cc1ccccc1)[C@@H](O)C[C@H](Cc1ccccc1)NC(=O)[C@H](C(C)C)N1CCCNC1=O", "> 50 µM"]
]}

Looking up COC(=O)C[C@](O)(CCCC(C)(C)O)C(=O)O[C@@H]1C(OC)=C[C@]23CCCN2CCc2cc4c(cc2[C@H]13)OCO4 , I see its CC50 at 24 h listed as 6.22 µM

----------
# Test system: Vero cells
# Experimental Details: Cytotoxicity (cell viability) in the SARS-CoV-2 Vero cell assay
# Condition Description: Table 2 test
Experimental Readout: CC50

Lab note: measured CC50 of N[C@@H]1CCCN(c2c(/C=C3\SC(=O)NC3=O)cccc2-c2ccccc2)C1 was > 50 µM

----------
# Experimental Details: Cytotoxicity in uninfected, compound-treated MRC5 cells (Cell-Titer Glo)
# Condition Description: human
Experimental Readout: CC50 at 120 h (µM)
Number only, in µM; omit the unit.

Lab note: C=CCNC1=C2C[C@@H](C)C[C@H](OC)[C@H](O)[C@@H](C)/C=C(\C)[C@H](OC(N)=O)[C@@H](OC)/C=C\C=C(/C)C(=O)NC(=CC1=O)C2=O gave CC50 at 120 h of 0.253

----------
# Experimental Details: Cytotoxicity (cell viability) in the SARS-CoV-2 Vero cell assay
# Condition Description: African green monkey, Vero cells, CC50, Round 1
Below, each entry is listed with its recorded CC50 at 24 h.

{"columns": ["Compound", "CC50 at 24 h"],
 "data": [
  ["CC(C)C[C@H](NC(=O)[C@H](Cc1ccccc1)NC(=O)c1cnccn1)B(O)O [Bortezomib]", "> 50 µM"],
  ["CC(=O)Nc1cccc(-n2c(=O)n(C3CC3)c(=O)c3c(Nc4ccc(I)cc4F)n(C)c(=O)c(C)c32)c1 [Trametinib]", "> 50 µM"]
]}

Below: the item to evaluate.
// field: CC50 at 24 h; key: CCC(CC)COC(=O)[C@H](C)N[P@](=O)(OC[C@H]1O[C@@](C#N)(c2ccc3c(N)ncnn23)[C@H](O)[C@@H]1O)Oc1ccccc1 [Remdesivir] ; value = > 50 µM

----------
# Experimental Details: Cytotoxicity (cell viability) in the SARS-CoV-2 Vero cell assay
# Condition Description: African green monkey, Vero cells, CC50, Round 2
Experimental Readout: CC50 at 24 h

Use these answered entries as a reference point.
{"columns": ["Smiles String", "CC50 at 24 h"],
 "data": [
  ["CC(C)c1cc(-c2n[nH]c(=O)n2-c2ccc3c(ccn3C)c2)c(O)cc1O", "28.9 µM"],
  ["C=CCNC1=C2C[C@@H](C)C[C@H](OC)[C@H](O)[C@@H](C)/C=C(\\C)[C@H](OC(N)=O)[C@@H](OC)/C=C\\C=C(/C)C(=O)NC(=CC1=O)C2=O", "> 50 µM"]
]}

Now for another entry.
Input CCC(CC)COC(=O)[C@H](C)N[P@](=O)(OC[C@H]1O[C@@](C#N)(c2ccc3c(N)ncnn23)[C@H](O)[C@@H]1O)Oc1ccccc1 . Output CC50 at 24 h: > 50 µM
